- MEASURED_TARGET: Rap_(pLS20) (Bacillus subtilis plasmid pLS20)
- ASSAY_EXPLANATION: fluorescence polarisation; equilibrium competition: native Phr*_(pLS20) 0.6–1250 μM against 10 μM Rap_(pLS20) and 50 nM 6-FAM-Phr*_(pLS20); 20 mM Tris pH 7.5, 150 mM NaCl, 1 mM DTT, 0.01% Triton X-100; 25°C
MEASURED_ATTRIBUTE: pKd
// pKd here means minus log10 of the molar concentration (mol/L)

### Prompt Report measured pKd; entry is QKGMY [Phr*_(pLS20) peptide (QKGMY)]
### Response 5.13
